Listed below: yeast fitness values for each entry.
B1: tRNA (parent)
chain: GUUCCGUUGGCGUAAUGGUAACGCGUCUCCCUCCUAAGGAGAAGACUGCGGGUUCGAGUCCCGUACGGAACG

Variants of: B1
EXPERIMENT NOTES: yeast fitness relative to wild type (ratio to wild type); higher = fitter; tRNA-Arg(CCU), competitive growth, 37 C, YPD
Variants at the floor of the assay were thinned out.
Reply briefly: the number, and no unit.

Recorded yeast fitness, per entry:
* GUUCCGUUGGCGCAAUGGUAACGCGUCUCCCUCCUAAGGAGAUGACUGCGGGUUCGAGUCCCGUACGGAACG [U13C A43U] | 1.04
* GUUCGGUUGGCGUAAUGGUAACGCGUCUCCCUCCUAAGGAGAAGUCUGCGGGUUCGUGUCCCGUACGGAACG [C5G A45U A57U] | 0.565
* GUUCCGUUGGCGUAAUGGUAACGCGUCUCCCUCCUAAGGAAAAGACUGCGGGUACGAGUCCCGUACGGAACG [G41A U54A] | 0.674
* GUUCCGUUGGCGUCAUGGUAACGCGACUCCCUCUUAAGGAGAAGACUGCGGGUUGGAGUCCCGUACGGAACG [A14C U26A C34U C55G] | 0.519
* GUUCCGUUGGCGUAAUGGUAACGCGUCUCCCUCCUAAGGUGAAGACUGCGGGUUCGAGUCCCGAACGGAACG [A40U U64A] | 0.675
* GUUACGUUGGCGUAACGGUAACGCGUCUCCCUCCUAAGGAGAAGACUGCGGGUUCGAGUCCCGUACGGAACG [C4A U16C] | 0.702
* GUUCCGUUGGCGUAAUGGUAACGCGUCUCUCUCCUAAGGAGAAGACUGCGGAUUCGAGUCCCGUACGGAACG [C30U G52A] | 0.785
* GUUCCGUUGGCGUAAUGGUAACGCGUCUCCCUCGUAAGGAGAAGACUGCGGGUUCGAGGCCCGUACGUAACG [C34G U59G G68U] | 0.576

Per the records, this variant ( GGUCCGUUGGCGUAAUGGUAACGCGCCUCCCUCCUAAGGAGAAGACUGCGGGUUCGAGUCCCGUACGGAACG [U2G U26C] ) has yeast fitness equal to 0.918

Lab book: yeast fitness of GUUCCCUUGGCGUAAUGGUAACGCGUCUCCCUCCUAAGGAGAAGACUGCGGGUUCGAGUCCCGUACGGUACG [G6C A69U] noted as 0.976

Data origin, for the record: the RNAGym collection of RNA variant scans (doi:10.1126/science.aae0568)
